- Subject of test: T1, mouse folate receptor alpha (mFRα), recombinant protein (mouse, UniProt P35846 25-232)
- T1 construct: Bought recombinant proteins (e.g. biotinylated, Acro Biosystems FO1-M82E9); also called mFOLR1; Ms FOLR1
- Assay info: BLI, FRα on AR2G biosensors, 1:1 model
Measured endpoint: kon (M⁻¹ s⁻¹)

- Binder: "VHH 2HFO42 (family 3) (VHH, also called 2HF042; Nb42) VHH: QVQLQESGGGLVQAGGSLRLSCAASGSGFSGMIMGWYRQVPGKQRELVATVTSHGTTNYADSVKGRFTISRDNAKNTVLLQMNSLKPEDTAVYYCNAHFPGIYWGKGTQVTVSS"
  Test result: 203000
- Binder: "VHH 3HFO28 (family 7) (VHH) VHH: QVQLQESGGGLVQPGGSLRLSCAASGSTLDRYEIGWFRQAPGKGRERVSCISTTSSTYEDSVKGRFTISRDNAKNTVYLQMNSLKPEDTAVYYCATVRVAWSTCFPTGDSWGKGTQVTVSS"
  Test result: 464000
- Binder: "VHH 3MFR60 (family 10) (VHH) VHH: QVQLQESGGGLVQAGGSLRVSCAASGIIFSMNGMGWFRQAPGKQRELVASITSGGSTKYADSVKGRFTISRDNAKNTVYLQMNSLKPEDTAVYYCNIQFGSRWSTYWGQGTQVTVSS"
  Test result: "1.15e+06"
- Binder: "VHH 3HFO26 (family 1) (VHH) VHH: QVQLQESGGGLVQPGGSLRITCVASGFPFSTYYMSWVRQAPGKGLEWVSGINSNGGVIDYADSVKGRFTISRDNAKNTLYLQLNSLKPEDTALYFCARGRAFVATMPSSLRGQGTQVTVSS"
  Test result: "2.5e+06"
- Binder: "VHH 2MFR7 (family 1) (VHH, also called 2MFRO7) VHH: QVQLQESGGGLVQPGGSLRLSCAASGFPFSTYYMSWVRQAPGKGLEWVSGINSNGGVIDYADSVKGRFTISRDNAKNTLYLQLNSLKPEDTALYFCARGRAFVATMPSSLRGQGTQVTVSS"
  Test result: "3.15e+06"
- Binder: "VHH 2HFO19 (family 1) (VHH, also called Nb19) VHH: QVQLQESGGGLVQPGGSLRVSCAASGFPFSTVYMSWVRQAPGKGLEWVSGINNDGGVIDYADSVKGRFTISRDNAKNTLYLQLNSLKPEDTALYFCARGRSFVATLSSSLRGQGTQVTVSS"
  Test result: "1.32e+06"
